Values from patent US12187681B2

biological target: hERG (human ether-a-go-go related gene potassium channel, KCNH2) (Homo sapiens, UniProt Q12809); construct: expressed in transfected cells; host or cells: HEK293; assay: hERG channel whole-cell patch clamp (Ion Channel Activity Measurement); format: cell-based; settings: human, HEK293 cells expressing the human ERG potassium channel, pH 7.4, 1 μM test article, room temperature
Sequence (Q12809 whole entry): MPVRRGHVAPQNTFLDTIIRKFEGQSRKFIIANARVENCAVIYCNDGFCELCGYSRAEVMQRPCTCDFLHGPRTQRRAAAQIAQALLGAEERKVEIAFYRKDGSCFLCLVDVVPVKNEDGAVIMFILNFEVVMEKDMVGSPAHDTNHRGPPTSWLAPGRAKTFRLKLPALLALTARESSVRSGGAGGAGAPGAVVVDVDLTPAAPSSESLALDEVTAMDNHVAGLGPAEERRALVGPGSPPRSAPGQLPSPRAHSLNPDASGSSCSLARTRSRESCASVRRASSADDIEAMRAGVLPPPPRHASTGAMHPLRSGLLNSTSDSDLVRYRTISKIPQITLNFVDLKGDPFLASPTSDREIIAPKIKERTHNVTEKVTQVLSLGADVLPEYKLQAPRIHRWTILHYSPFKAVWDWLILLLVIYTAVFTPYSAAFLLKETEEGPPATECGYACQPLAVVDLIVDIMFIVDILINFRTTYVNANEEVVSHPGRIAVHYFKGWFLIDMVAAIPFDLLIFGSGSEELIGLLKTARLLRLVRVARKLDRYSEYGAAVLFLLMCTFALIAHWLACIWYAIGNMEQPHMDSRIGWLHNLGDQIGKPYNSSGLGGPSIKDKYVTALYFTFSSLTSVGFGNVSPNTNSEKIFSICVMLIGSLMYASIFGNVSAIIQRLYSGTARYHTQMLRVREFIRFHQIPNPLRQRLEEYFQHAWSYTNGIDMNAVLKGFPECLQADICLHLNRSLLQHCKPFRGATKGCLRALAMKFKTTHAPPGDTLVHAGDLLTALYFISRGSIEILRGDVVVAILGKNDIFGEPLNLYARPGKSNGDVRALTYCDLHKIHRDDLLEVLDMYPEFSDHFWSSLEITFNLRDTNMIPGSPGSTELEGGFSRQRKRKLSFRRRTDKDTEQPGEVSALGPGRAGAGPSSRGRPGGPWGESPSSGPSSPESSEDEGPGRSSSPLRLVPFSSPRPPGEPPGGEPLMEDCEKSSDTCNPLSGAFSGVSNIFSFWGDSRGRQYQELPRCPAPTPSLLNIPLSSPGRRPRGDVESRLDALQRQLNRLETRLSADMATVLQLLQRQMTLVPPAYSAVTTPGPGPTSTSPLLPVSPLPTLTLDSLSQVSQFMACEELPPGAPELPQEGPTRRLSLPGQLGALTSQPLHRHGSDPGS
Counter-ions that a name gives are not always drawn.
// values below are reported inhibition at 1 μM

Past entries and their recorded results:
| molecule | inhibition at 1 μM |
| --- | --- |
| Oc1ccc2ccccc2c1Cc1c(OCCN2CCCCC2)ccc2ccccc12 | 75 to 100% |
| Oc1c(F)cc2ccccc2c1Cc1c(O)c(F)cc2ccccc12 | < 25% |

INPUT: Please look at this molecule and report its inhibition at 1 μM: `COc1ccc(COCc2ccc3ccccc3c2C(O)c2c(COCc3ccc(OC)cc3)ccc3ccccc23)cc1`
OUTPUT: < 25%

INPUT: # return recorded inhibition at 1 μM for input `CS(=O)(=O)Nc1ccc2ccccc2c1Cc1c(O)ccc2ccccc12`
OUTPUT: < 25%

INPUT: Respond only with inhibition at 1 μM recorded for `O=C(O)c1ccc2ccccc2c1Cc1c(O)ccc2ccccc12`
OUTPUT: < 25%

INPUT: Give the measured inhibition at 1 μM for `CC(C)c1cc2ccccc2c(Cc2c(O)c(C(C)C)cc3ccccc23)c1O`
OUTPUT: < 25%

INPUT: Assign inhibition at 1 μM to the following record: `Oc1ccc2ccccc2c1Cc1c(OCCC2CCNCC2)ccc2ccccc12`
OUTPUT: 75 to 100%

INPUT: Answer with reported inhibition at 1 μM of `CC(=O)N(c1c(O)ccc2ccccc12)c1c(O)ccc2ccccc12`
OUTPUT: < 25%

INPUT: Supply measured inhibition at 1 μM of `Nc1cc(Cc2c(N)ccc3ccccc23)c2ccccc2c1` in your reply.
OUTPUT: < 25%

INPUT: Specify inhibition at 1 μM for `CCN(CC)CCOc1ccc2cc(C(=O)O)ccc2c1Cc1c(O)ccc2cc(C(=O)O)ccc12` and stop.
OUTPUT: < 25%

INPUT: Quote inhibition at 1 μM reported for CCN(CC)CCOc1c(C(C)C)cc2ccccc2c1Cc1c(O)c(C(C)C)cc2ccccc12 [Compound A102, hydrochloride Salt] please.
OUTPUT: 50 to 75%

INPUT: Tell me inhibition at 1 μM reported for `COc1cc2ccccc2c(Cc2c(O)c(OC)cc3ccccc23)c1O`
OUTPUT: < 25%

INPUT: Answer with the recorded inhibition at 1 μM of `CC[N+](C)(CC)CCOc1ccc2ccccc2c1Sc1c(OC)ccc2ccccc12` only.
OUTPUT: 75 to 100%

INPUT: Tell us which inhibition at 1 μM value is on record for `NC(=O)c1ccc2c(Cc3c(O)ccc4ccccc34)c(O)ccc2c1`
OUTPUT: 25 to 50%

INPUT: Using known records, supply inhibition at 1 μM for `COc1ccc2ccccc2c1Cc1c(OCC2CCNCC2)ccc2ccccc12`
OUTPUT: 75 to 100%

INPUT: // fetch inhibition at 1 μM given entry `CCN(CC)CCOc1ccc2ccccc2c1Nc1c(OC)ccc2ccccc12`
OUTPUT: 75 to 100%

INPUT: Return inhibition at 1 μM for the following molecule: `CCOCOc1cccc2c1C(=O)CCC2`
OUTPUT: < 25%

INPUT: Given the molecule `Oc1ccc2ccccc2c1Cc1c(O)ncc2ccccc12` , write its reported inhibition at 1 μM.
OUTPUT: < 25%

INPUT: For the molecule `CCOCOc1ccc2ccccc2c1Cc1c(OCC2CCNCC2)ccc2ccccc12` , give its measured inhibition at 1 μM value.
OUTPUT: 75 to 100%

INPUT: Annotate the molecule `Oc1ccc2ccccc2c1Cc1c(OCCN2CCOCC2)ccc2ccccc12` with its measured inhibition at 1 μM.
OUTPUT: < 25%

INPUT: Provide measured inhibition at 1 μM value, entry: `COc1ccc2ccccc2c1Cc1c(OCCO)ccc2ccccc12`
OUTPUT: 75 to 100%

INPUT: // fetch inhibition at 1 μM given entry `O=C1Cc2ccccc2N1Cc1c(O)ccc2ccccc12`
OUTPUT: < 25%

INPUT: Answer with the recorded inhibition at 1 μM for the molecule listed here: `CCN(CC)CCNC(=O)c1ccc2ccccc2c1Cc1c(OC)ccc2ccccc12`
OUTPUT: 75 to 100%

INPUT: For the molecule Oc1cccc2c1C(c1c(O)ccc3c1CCCC3)CCC2 (centres unmarked) , give its reported inhibition at 1 μM.
OUTPUT: < 25%

INPUT: Return value of inhibition at 1 μM for input `Oc1ccc2c(c1Cc1c(O)ccc3ccccc13)CNCC2` , no commentary.
OUTPUT: < 25%

INPUT: Answer with the recorded inhibition at 1 μM for the molecule listed here: `CCOCOc1ccc2ccccc2c1Cc1c(OCCN2CCCC2)ccc2ccccc12`
OUTPUT: < 25%

INPUT: Supply measured inhibition at 1 μM of `Cc1cc2ccccc2c(Cc2c(O)ccc3ccccc23)c1O` in your reply.
OUTPUT: < 25%

INPUT: Provide one value: measured inhibition at 1 μM of `CCN(CC)CCOc1ccc2ccccc2c1Sc1c(O)ccc2ccccc12`
OUTPUT: 75 to 100%

INPUT: Please list inhibition at 1 μM recorded for the molecule `CCN(CC)CCOc1ccc2nccnc2c1Cc1c(O)ccc2ccccc12`
OUTPUT: < 25%

INPUT: Fill in inhibition at 1 μM for record `COc1ccc2ccccc2c1Cc1c(O)ccc2ccccc12`
OUTPUT: < 25%
